Biological target: T1, Human IL2Rγ extracellular domain expressed with a C-terminal myc-myc-hexahistidine tag (human)
T1 construct: also called hIL-2Rg-MMH; hIL-2RG-MMH
T1 chain: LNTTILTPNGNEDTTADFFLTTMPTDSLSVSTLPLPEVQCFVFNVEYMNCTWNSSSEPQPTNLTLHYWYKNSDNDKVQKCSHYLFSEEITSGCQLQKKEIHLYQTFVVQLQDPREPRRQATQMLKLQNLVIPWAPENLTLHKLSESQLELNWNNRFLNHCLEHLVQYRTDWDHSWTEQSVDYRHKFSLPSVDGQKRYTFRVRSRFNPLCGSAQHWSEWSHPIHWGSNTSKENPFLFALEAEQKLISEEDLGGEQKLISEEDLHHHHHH
Test: SPR Biacore 4000, mAb captured by anti-hFc, HBS-ET, 25C
pKd: −log10 of the molar value.
experimental.endpoint: pKd

• H4H12886P (antibody, human IgG4 S228P, kappa, V domains shown, anti-IL2Rγ monoclonal antibody expressed with human IgG4 Fc) VH: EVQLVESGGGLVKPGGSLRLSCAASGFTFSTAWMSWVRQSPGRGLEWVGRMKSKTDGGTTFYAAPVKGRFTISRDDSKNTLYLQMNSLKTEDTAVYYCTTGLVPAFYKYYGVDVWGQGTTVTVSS VL: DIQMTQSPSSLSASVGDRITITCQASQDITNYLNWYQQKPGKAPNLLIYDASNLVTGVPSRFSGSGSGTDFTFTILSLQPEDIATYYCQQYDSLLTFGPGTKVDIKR = 8.69
• H4H12874P (antibody, human IgG4 S228P, kappa, V domains shown, anti-IL2Rγ monoclonal antibody expressed with human IgG4 Fc) VH: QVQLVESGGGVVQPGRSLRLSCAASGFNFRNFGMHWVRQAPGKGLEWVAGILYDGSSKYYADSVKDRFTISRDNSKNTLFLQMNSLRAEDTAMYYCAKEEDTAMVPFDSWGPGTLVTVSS VL: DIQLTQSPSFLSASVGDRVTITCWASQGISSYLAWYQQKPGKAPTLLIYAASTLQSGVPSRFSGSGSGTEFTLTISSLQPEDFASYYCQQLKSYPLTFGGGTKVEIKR = 8.45
• H4H12858P (antibody, human IgG4 S228P, kappa, V domains shown, anti-IL2Rγ monoclonal antibody expressed with human IgG4 Fc; also called REGN9433) VH: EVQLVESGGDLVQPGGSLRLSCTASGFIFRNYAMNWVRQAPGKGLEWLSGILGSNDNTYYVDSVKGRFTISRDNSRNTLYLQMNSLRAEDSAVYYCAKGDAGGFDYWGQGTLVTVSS VL: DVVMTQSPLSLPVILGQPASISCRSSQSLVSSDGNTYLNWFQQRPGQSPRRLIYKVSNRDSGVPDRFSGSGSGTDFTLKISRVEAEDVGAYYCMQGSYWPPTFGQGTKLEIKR = 8.91
• H4H12863P (antibody, human IgG4 S228P, kappa, V domains shown, anti-IL2Rγ monoclonal antibody expressed with human IgG4 Fc) VH: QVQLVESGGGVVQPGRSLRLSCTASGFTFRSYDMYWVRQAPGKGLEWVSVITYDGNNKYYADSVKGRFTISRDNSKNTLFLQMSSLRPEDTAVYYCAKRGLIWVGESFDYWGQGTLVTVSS VL: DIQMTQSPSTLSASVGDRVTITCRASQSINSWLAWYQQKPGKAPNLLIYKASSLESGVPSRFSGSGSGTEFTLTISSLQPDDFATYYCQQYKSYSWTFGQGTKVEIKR = 8.77
• H4H12871P (antibody, human IgG4 S228P, kappa, V domains shown, anti-IL2Rγ monoclonal antibody expressed with human IgG4 Fc; also called REGN9434) VH: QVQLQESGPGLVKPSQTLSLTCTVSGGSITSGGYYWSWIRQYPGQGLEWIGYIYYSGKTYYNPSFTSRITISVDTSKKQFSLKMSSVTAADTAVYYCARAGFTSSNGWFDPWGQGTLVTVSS VL: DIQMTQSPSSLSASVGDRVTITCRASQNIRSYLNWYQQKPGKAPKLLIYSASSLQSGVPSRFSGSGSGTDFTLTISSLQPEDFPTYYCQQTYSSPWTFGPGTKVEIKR = 8.30
